Consider the following compounds; for each one, report its IC50.
molecular target: A/M2/HK156/94 (Influenza A virus, UniProt O70632); assay: biochemical
Sequence (O70632 whole entry, looked up): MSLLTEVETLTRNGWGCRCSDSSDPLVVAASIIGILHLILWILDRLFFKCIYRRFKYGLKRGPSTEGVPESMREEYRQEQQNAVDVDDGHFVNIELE
Reply with just the number (in µM).

Problem: Observed IC50 on A/M2/HK156/94 (Influenza A virus, UniProt O70632) for NC12CC3CC(CC(C3)C1)C2 , please.
Result: 0.98

Problem: Observed IC50 on A/M2/HK156/94 (Influenza A virus, UniProt O70632) for CC(N)C12CC3CC(CC(C3)C1)C2 (centres unmarked) , please.
Result: 0.18
